Overview of reported bioavailability across a group of compounds:
- MEASUREMENT_DESCRIPTION: Oral bioavailability in Beagle dog plasma 2 mg/kg measured for 15 to 1440 mins by LC-MS/MS analysis relative to control
- Format: ADME, organism-based, Canis lupus familiaris
- APPLIED_CONDITIONS: time 15-1440 min
PROPERTY: bioavailability (%)

chemical_string=CCC(=O)CCCCC[C@H](NC(=O)[C@H]1CC12CCN(CC)CC2)c1ncc(-c2cc3ccc(C)nc3cc2OC)o1 measured_value=11
chemical_string=CCC(=O)CCCCC[C@H](NC(=O)[C@H]1CC12CCN(CC)CC2)c1ncc(-c2cc3ccc(C)nc3cc2OC)[nH]1 measured_value=4.1
chemical_string=CCC(=O)CCCCC[C@H](NC(=O)[C@H]1CC12CCN(C)CC2)c1ncc(-c2cc3ccc(C)nc3cc2OC)o1 measured_value=42

----------
- MEASUREMENT_DESCRIPTION: Drug uptake in Beagle dog plasma 2 mg/kg, po measured after 24 hrs mins by LC-MS/MS analysis
- Assay type: ADME, organism-based, Canis lupus familiaris
PROPERTY: concentration at 24 h (nM)

chemical_string=CCC(=O)CCCCC[C@H](NC(=O)[C@H]1CC12CCN(CC)CC2)c1ncc(-c2cc3ccc(C)nc3cc2OC)[nH]1 property="concentration at 24 h" measured_value=1.2
chemical_string=CCC(=O)CCCCC[C@H](NC(=O)[C@H]1CC12CCN(CC)CC2)c1ncc(-c2cc3ccc(C)nc3cc2OC)o1 property="concentration at 24 h" measured_value=2
chemical_string=CCC(=O)CCCCC[C@H](NC(=O)[C@H]1CC12CCN(C)CC2)c1ncc(-c2cc3ccc(C)nc3cc2OC)o1 property="concentration at 24 h" measured_value=3.3

----------
- MEASUREMENT_DESCRIPTION: Cmax in Beagle dog plasma 2 mg/kg, po measured for 15 to 1440 mins by LC-MS/MS analysis
- Format: ADME, organism-based, Canis lupus familiaris
PROPERTY: Cmax (nM)

chemical_string=CCC(=O)CCCCC[C@H](NC(=O)[C@H]1CC12CCN(CC)CC2)c1ncc(-c2cc3ccc(C)nc3cc2OC)o1 measured_value=15
chemical_string=CCC(=O)CCCCC[C@H](NC(=O)[C@H]1CC12CCN(CC)CC2)c1ncc(-c2cc3ccc(C)nc3cc2OC)[nH]1 measured_value=26
chemical_string=CCC(=O)CCCCC[C@H](NC(=O)[C@H]1CC12CCN(C)CC2)c1ncc(-c2cc3ccc(C)nc3cc2OC)o1 measured_value=72

----------
Overview of reported Tmax across a group of compounds:
- MEASUREMENT_DESCRIPTION: Tmax in Wistar Han rat plasma 10 mg/kg, po measured for 15 to 1440 mins by LC-MS/MS analysis
- Assay type: ADME, organism-based
- APPLIED_CONDITIONS: time 15-1440 min
PROPERTY: Tmax (h)

chemical_string=CCC(=O)CCCCC[C@H](NC(=O)[C@H]1CC12CCN(CC)CC2)c1ncc(-c2cc3cn(C)nc3cc2OC)o1 property=Tmax units_of_measure=h measured_value=4
chemical_string=CCC(=O)CCCCC[C@H](NC(=O)[C@H]1CC12CCN(C)CC2)c1ncc(-c2ccc3nc(C)ccc3c2)[nH]1 property=Tmax units_of_measure=h measured_value=0.3
chemical_string=CCC(=O)CCCCC[C@H](NC(=O)[C@H]1CC12CCN(CC)CC2)c1ncc(-c2cc3ccn(CC)c(=O)c3cc2OC)o1 property=Tmax units_of_measure=h measured_value=5
